# Experimental Target: T1, Nluc-IL23R fusion protein (human, UniProt Q5VWK5 22-629)
# T1 construct: range 22-629; expressed with a secretion signal in HEK293 cells; used as crude membrane preparation; also called hIL-23R; human IL-23R; not shown: Nanoluc protein from the expression plasmid N1371 (Promega), N-terminal of IL-23R
# T1 sequence (looked up): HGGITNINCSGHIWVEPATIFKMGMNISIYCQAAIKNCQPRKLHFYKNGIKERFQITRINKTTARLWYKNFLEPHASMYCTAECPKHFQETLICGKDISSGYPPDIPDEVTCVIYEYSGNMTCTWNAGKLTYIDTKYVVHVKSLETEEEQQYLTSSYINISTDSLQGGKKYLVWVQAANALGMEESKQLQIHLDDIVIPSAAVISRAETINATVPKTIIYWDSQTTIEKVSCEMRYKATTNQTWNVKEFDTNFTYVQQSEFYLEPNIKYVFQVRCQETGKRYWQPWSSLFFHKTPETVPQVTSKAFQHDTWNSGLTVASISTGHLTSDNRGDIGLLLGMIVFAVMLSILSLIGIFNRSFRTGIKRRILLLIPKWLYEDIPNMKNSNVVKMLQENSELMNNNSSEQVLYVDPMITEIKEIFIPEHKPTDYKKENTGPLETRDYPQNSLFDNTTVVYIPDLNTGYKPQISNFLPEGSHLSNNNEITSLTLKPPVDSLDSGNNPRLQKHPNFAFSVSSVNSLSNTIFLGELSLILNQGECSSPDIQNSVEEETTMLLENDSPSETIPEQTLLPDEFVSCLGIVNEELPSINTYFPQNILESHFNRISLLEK
# Measurement Notes: BRET competition vs TAMRA-labelled peptide, Nluc-IL23R membranes
pIC50: −log10 of the molar value. Bridges are numbered along the chain shown (N, C = ends). [ ]: non-standard residue; d: D form. 2Nal = N[C@@H](Cc1ccc2ccccc2c1)C(=O)O; 3Amb = NCc1cccc(C(=O)O)c1
Measure: pIC50

A. Ac-DESCWQCW[2Nal]LKR-NH2 (lactam 2-11; bridge 4-7; not fully specified (bridges); printed as [Ac]-DE(1c)SC(2a)WQC(2a)W[2-Nal]LK(1c)R-[NH2]) [Ref 17]
B. [3Amb]SCWQCW[2Nal]LER-NH2 (lactam N-10; bridge 3-6; not fully specified (bridges); printed as [(3-Aminomethyl)benzoyl](1c)*SC(2a)WQC(2a)W[2-Nal]LE(1c)R-[NH2]) [Ref 37]
Lookup: Sorting by pIC50 in descending order, would A or B appear first? Mark your selection by writing its label.
Found: B
(B: 7.92, A: 7.06)
